The measurements presented in this section are drawn from PubChem BioAssay (Tox21).

# experiment: qHTS assay to identify small molecule phospholipidosis (PLD) inducers (AID 1259344); further: on the % scale 0 is the no-effect control and ±100 the full control effect
# experimentalParameters: HepG2 phospholipidosis, LipidTOX Red imaging, 24 h; series mostly up to 38.3 µM
Inconclusive results are not listed. The source made the active and inactive calls. The call rests on the fitted dose curve; in most records, active means well fitted activation curve with a large enough effect; inconclusive means small, poorly fitted or top-dose-only effect; inactive means flat fitted curve, though single readings scatter.
measurementType: outcome

Solved cases (10 shown):
Requested field: outcome. Item: `CCCN1CCC[C@@H]2Cc3[nH]ncc3C[C@H]21` inactive

Requested field: outcome. Item: CCC1(c2cccc(O)c2)CCCCN(C)C1 (stereo unspecified) inactive

Requested field: outcome. Item: CN1C(=O)COc2c(C(=O)NC3CN4CCC3CC4)cc(Cl)cc21 (stereo unspecified) inactive

Requested field: outcome. Item: `CCc1cc(OC)c(C[C@H](C)N)cc1OC` inactive

Requested field: outcome. Item: `CCC1(c2ccccc2)C(=O)N(COC)C(=O)N(COC)C1=O` inactive

Requested field: outcome. Item: ClC1=C(Cl)C2(Cl)C(CBr)CC1(Cl)C2(Cl)Cl (stereo unspecified) inactive

Requested field: outcome. Item: `CCCOC(=O)Cc1ccc(OCC(=O)N(CC)CC)c(OC)c1` inactive

Requested field: outcome. Item: `CCN(CC)CCOC(=O)C(O)(c1ccccc1)c1ccccc1` inactive

Requested field: outcome. Item: `CCOC(=O)c1ncn2c1CN(C)C(=O)c1c(I)cccc1-2` inactive

Requested field: outcome. Item: `CC(=O)OCC1=C(C(=O)O)N2C(=O)[C@@H](N)[C@H]2SC1` inactive

From here, focus on the item given below.
Requested field: outcome. Item: `C=C1C[C@@H]2[C@H](CC[C@]3(C)C(=O)CC[C@@H]23)[C@@]2(C)C=CC(=O)C=C12` inactive

----------
# experiment: qHTS assay to identify small molecule HDAC inhibitors - cell viability counter screen (AID 1259365); further: on the % scale 0 is the no-effect control and ±100 the full control effect; nearly all actives have a fitted effect of over 50% in size
# experimentalParameters: HCT-116 viability, CellTiter-Glo ATP luminescence, 2 h; series mostly up to 92.4 µM
The source made the active and inactive calls. Calls come from the whole dose curve; as a rule, active = well fitted cell-killing curve with a large enough effect in the repeat runs; inconclusive = weak or mixed curves, or effect the other way; inactive = flat fitted curve, though single readings scatter.
measurementType: activity change, negative = cytotoxicity

Solved cases (5 shown):
Requested field: activity change, negative = cytotoxicity. Item: `CCN[C@H](C)Cc1cccc(C(F)(F)F)c1` inactive

Requested field: activity change, negative = cytotoxicity. Item: `CCNc1nc(NCC)nc(SC)n1` inactive

Requested field: activity change, negative = cytotoxicity. Item: `CCOC(=O)CCl` inactive

Requested field: activity change, negative = cytotoxicity. Item: BrCC1CO1 (stereo not given) inactive

Requested field: activity change, negative = cytotoxicity. Item: `c1cncc([C@@H]2CCCCN2)c1` inactive

From here, focus on the item given below.
Requested field: activity change, negative = cytotoxicity. Item: C=CC1(C)OC(=O)N(c2cc(Cl)cc(Cl)c2)C1=O (stereo not given) inactive

----------
# experiment: qHTS assay to test for compound auto fluorescence at 460 nm (blue) in HEK293 cell free culture (AID 720681); further: on the % scale 0 is the no-effect control and ±100 the full control effect
# experimentalParameters: cell-free medium, autofluorescence 405/460 nm (blue); series mostly up to 91.3 µM
Activity calls are given as the source filed them. Calls come from the whole dose curve; as a rule, active = well fitted curve in the direction sought with a large enough effect in the repeat runs; inconclusive = weak or mixed curves; inactive = flat fitted curve, though single readings scatter.
measurementType: fluorescence, % of fluorescent control

Solved cases (5 shown):
Requested field: fluorescence, % of fluorescent control. Item: `O=C(O)CBr` inactive

Requested field: fluorescence, % of fluorescent control. Item: `CC[C@H](N)c1ccccc1` inactive

Requested field: fluorescence, % of fluorescent control. Item: `ClCOCCl` inactive

Requested field: fluorescence, % of fluorescent control. Item: `Cc1cccc2sc3nncn3c12` inactive

Requested field: fluorescence, % of fluorescent control. Item: Cc1ccc2c(c1)C1CN(C)CCC1N2 (centres undefined) inactive

New cases:
Requested field: fluorescence, % of fluorescent control. Item: `CCOC(=O)N(C)N=O` inactive

Requested field: fluorescence, % of fluorescent control. Item: `CCOP(=S)(OCC)Oc1ccc(Cl)cc1Cl` inactive

Requested field: fluorescence, % of fluorescent control. Item: `NNC(N)=O` inactive

Requested field: fluorescence, % of fluorescent control. Item: `CCCCOC(C)=O` inactive

----------
# experiment: qHTS RealTime-Glo MT Cell Viability Assay in HEK293 cells - 40 hour (AID 1224874); further: on the % scale 0 is the no-effect control and ±100 the full control effect; nearly all actives have a fitted effect of over 50% in size
# experimentalParameters: RealTime-Glo luminescence; hits give low values
Records with an inconclusive call do not appear.
measurementType: max response (%)
Note: unit % is implicit; provide only the numeric part.

Requested field: max response. Item: `Cc1ccc(Cl)c(O)c1` 1.02

Requested field: max response. Item: `CNC(=O)O/N=C(/CSC)C(C)(C)C` -0.61

Requested field: max response. Item: `CC(C)c1ccc(O)cc1` 0.569

Requested field: max response. Item: `NC(=O)OCCCc1ccccc1` 2.14

Requested field: max response. Item: `CC(C)(C)C(=O)C(Cl)Cl` -2.49

Requested field: max response. Item: `CCCOC(=O)Cc1ccc(OCC(=O)N(CC)CC)c(OC)c1` -5.19

Requested field: max response. Item: `CCCCCCC(=O)CCCCCC/C=C/C[C@@H](O)[C@H](O)[C@@](N)(CO)C(=O)O` 2.74

Requested field: max response. Item: `CN=CNc1ccc(C)cc1C` 5.53

Requested field: max response. Item: `CC(=O)CN(CC(C)=O)N=O` 5.04

Requested field: max response. Item: `ClC(Cl)(Cl)Cl` 2.56

Requested field: max response. Item: `CC(C)(N)Cc1ccccc1Cl` 1.76

Requested field: max response. Item: `O=C(CCl)NCO` 1.67

----------
# experiment: qHTS assay to identify small molecule antagonists of the sonic hedgehog signaling (Shh) pathway - cell viability counter screen (AID 1259367); further: on the % scale 0 is the no-effect control and ±100 the full control effect; nearly all actives have a fitted effect of over 55% in size
# experimentalParameters: NIH/3T3 Gli1-Luc viability, CellTiter-Fluor, 24 h; series mostly up to 92.4 µM
Results filed as inconclusive are left out. Activity calls are given as the source filed them. Calls come from the whole dose curve; as a rule, active = well fitted cell-killing curve with a large enough effect in the repeat runs; inconclusive = weak or mixed curves, or effect the other way; inactive = no such curve, though single readings can be large or run the other way.
measurementType: viability change, negative = cytotoxic

Solved cases (8 shown):
Requested field: viability change, negative = cytotoxic. Item: `Cn1c(CCCC(=O)O)nc2cc(N(CCCl)CCCl)ccc21` inactive

Requested field: viability change, negative = cytotoxic. Item: CC1N=C(N)OC1c1ccccc1 (stereo not given) inactive

Requested field: viability change, negative = cytotoxic. Item: `ClCOCCl` inactive

Requested field: viability change, negative = cytotoxic. Item: OCC(Cl)CCl (stereo not given) inactive

Requested field: viability change, negative = cytotoxic. Item: `CC(C)(C)C(=O)C(Cl)Cl` inactive

Requested field: viability change, negative = cytotoxic. Item: `CN(C)CCN(C)C` inactive

Requested field: viability change, negative = cytotoxic. Item: `C=CCN1CC[C@]23CCCC[C@H]2[C@H]1Cc1ccc(O)cc13` inactive

Requested field: viability change, negative = cytotoxic. Item: `N[C@@H]1C[C@H]1c1ccccc1` inactive

New cases:
Requested field: viability change, negative = cytotoxic. Item: CCCCCCC1CCOC1=O (stereo not given) inactive

----------
# experiment: qHTS assay for identifying genotoxic compounds that show differential cytotoxicity against isogenic chicken DT40 cell lines with known DNA damage response pathways - Rad54/Ku70 mutant cell line (AID 743015); further: nearly all actives have a fitted effect of over 60% in size
# experimentalParameters: DT40 Rad54/Ku70 mutant viability, CellTiter-Glo, 40 h; series mostly up to 66.8 µM
Records with an inconclusive call do not appear. Calls of active or inactive are those of the source. Calls come from the whole dose curve; as a rule, active = well fitted cell-killing curve with a large enough effect in the repeat runs; inconclusive = weak or mixed curves; inactive = no such curve, though single readings can be large or run the other way.
Reply using exactly one outcome from 1 (active), -1 (inactive)

Which result was noted for this compound in the test: OCC(Cl)CCl (centres undefined) -1

Which result was noted for this compound in the test: `CN1COCN(Cc2cnc(Cl)s2)/C1=N\[N+](=O)[O-]` -1

Which result was noted for this compound in the test: `CCCN1CCC[C@@H]2Cc3nc(N)ncc3C[C@H]21` -1

Which result was noted for this compound in the test: `COc1ccc(C=O)cc1O` -1

Which result was noted for this compound in the test: `CCCOc1nn(C(=O)NS(=O)(=O)c2ccccc2C(=O)OC)c(=O)n1C` -1

Which result was noted for this compound in the test: CCC1(c2cccc(O)c2)CCCCN(C)C1 (centres undefined) -1

Which result was noted for this compound in the test: CCOC(=O)C(SP(=S)(OC)OC)c1ccccc1 (centres undefined) -1

Which result was noted for this compound in the test: `CCOP(=O)(CN(CCO)CCO)OCC` -1

Which result was noted for this compound in the test: `CC[C@@H](CO)NC(=O)[C@@H]1C=C2c3cccc4[nH]cc(c34)C[C@H]2N(C)C1` -1

Which result was noted for this compound in the test: `O=C(O)c1c(Cl)ccc2cc(Cl)cnc12` -1

Which result was noted for this compound in the test: `O=C(O)C(F)(F)C(F)(F)C(F)(F)C(F)(F)C(F)(F)C(F)(F)F` -1

Which result was noted for this compound in the test: `N#CN` -1

Which result was noted for this compound in the test: `CC(C)(C)C(=O)Cl` -1

Which result was noted for this compound in the test: CCC(C(N)=O)N1CCCC1=O (centres undefined) -1

Which result was noted for this compound in the test: `CCN[C@H](C)Cc1cccc(C(F)(F)F)c1` 1

Which result was noted for this compound in the test: `ClC(Cl)(Cl)Cl` -1

Which result was noted for this compound in the test: `COC(=O)c1ccccc1CS(=O)(=O)NC(=O)Nc1nc(OC)cc(OC)n1` -1

Which result was noted for this compound in the test: C(COCC1CO1)OCC1CO1 (centres undefined) 1

Which result was noted for this compound in the test: `O=[N+]([O-])CCO` -1

Which result was noted for this compound in the test: CCNP(=S)(OC)O/C(C)=C/C(=O)OC(C)C (centres undefined) 1

Which result was noted for this compound in the test: `O=C(Cl)C(Cl)(Cl)Cl` -1

Which result was noted for this compound in the test: `CCCOC(=O)Cc1ccc(OCC(=O)N(CC)CC)c(OC)c1` -1

Which result was noted for this compound in the test: `C/C(=N\NC(=O)Nc1cc(F)cc(F)c1)c1ncccc1C(=O)O` -1

Which result was noted for this compound in the test: `O=C1CC(=O)NC(=O)N1` -1

Which result was noted for this compound in the test: `C=CC(=O)OCCN(C)C` -1

Which result was noted for this compound in the test: `O=c1[nH]c2ccccc2o1` -1

Which result was noted for this compound in the test: `COc1ccccc1OC` -1

Which result was noted for this compound in the test: CC(C)(C1CCC(O)CC1)C1CCC(O)CC1 (centres undefined) -1

Which result was noted for this compound in the test: `N[C@@H]1C[C@H]1c1ccccc1` -1
